Cited source: paper PMC3323551

Molecular target: His-OpaR (Vibrio parahaemolyticus RIMD 2210633)
Sequence: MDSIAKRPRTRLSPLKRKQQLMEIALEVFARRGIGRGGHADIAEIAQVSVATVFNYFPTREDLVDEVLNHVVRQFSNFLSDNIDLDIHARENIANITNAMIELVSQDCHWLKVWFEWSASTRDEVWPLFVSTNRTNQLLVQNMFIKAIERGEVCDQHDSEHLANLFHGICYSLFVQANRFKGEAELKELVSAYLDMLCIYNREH
Assay: DNase I footprinting
Settings: 1 mM MgCl2, 0.5 mM EDTA, 0.5 mM DTT, 50 mM NaCl, 10 mM Tris-HCl pH 7.5, 0.05 mg/ml poly(dI-dC), room temperature, 30 min; footprinting same buffer, then …

Entry sequence: GGATAAGTTCAAATTGGATCCAGCCTTAGCAGGCTCGGTTATTCTAACGACAGTGACAGATGTGGTTGGTTTTTTCGCCTTTTTGGGAACGGCGAGTTTAGTCATGCTCTAAAAAGTCCACTGTTTATTAATCAATCATTAGCATAATAGAGACAAATTGCATAACGCACTTGCAAATTGCAAAAACATTCAAAGTTTAAGCAACGTATGTCACAGAAACCAC (double strand) [qrr3 promoter fragment]
binding: binds
//
Entry sequence: AGTGGTTGCTTATGAATCAATCCCAGGAAAAGGCGAGAACAGCGAACCTTCAACTCGTTAACATTTTATTTTCATTTACATTTTGACTAACTCAATTGTTAATAAATTACCTAAATTGCATTTTGAAATTGCAGAATGCAATTAAGTTTTGTTTTTTGCAAAAATTTATATAGGCAATATCAGTTTATATGAGATCTTGTGCCCAAAAATAAAGCTTTGAAAATTGGCATGATTAATGCATAATACTTCTCGACC (double strand) [qrr2 promoter fragment]
binding: binds
//
Entry sequence: AACTTCCAACCACATAATTGCGCAGCAAATAACCAGACATTTACACTACAAAAAACCCATAAAATACCAACAAATTAGAATTATTAACTACAAAATAACTCTATTGAGTATTATGTTAGTTTTTCAGGGTAATTTTGTCCTAGTATTCCACTTCATGCTTATTATTTATATACTACTTGCCTGCTGAGAGCTCATAAATCCAATCATACCTGCTCCAGCC (double strand) [aphA promoter fragment]
binding: binds
//
Entry sequence: AACCGTGAAATCCATTTACTGAGGTATTTTTCCTCATTAATTAGCAGTATAGGGTAAAAATATGAAAGCTAATGGATAATCATAAAGTAGTAGTTGGTTTTTTGCTGAGAAAGTGATTAGTAGCAATGTAACAAGTGGCATATTTGCATGCTATTGCATTTTGCAAATGCAATTTGCGAAAGTGCTGGTTAATAATGCGTCG (double strand) [qrr4 promoter fragment]
binding: binds
//
Entry sequence: AGTGGGTTGAAAGTCACATCCTTTTGCGGAAAATTCTTGGGAGCGCTGCCAAATTTTCGAAAGTTTACAGCAAAACTTATCAATAATAATGACATTACTGTCTATAAATTATCCATCAGATGTTGACCTTGTGCATATGCACCATTACACTCATCACTGCTTAAAGCAATTATTAAAATAATCAATTAGGGGGTTACCCCCAACAACAACTCAAATGGCAAGGAAAATGGATATGGACTCAATTGCAAAGAGACCTAGAACTAGGC (double strand) [opaR promoter footprinting fragment]
binding: binds
